# SYSTEM_TESTED: HLA-A*01:01
# PROTOCOL: IEDB peptide-MHC binding, purified MHC/direct/fluorescence; filed as Kd, often an IC50 or EC50 that approximates it; bounds were set here for any values at or beyond the usual limits of such assays
# EXPERIMENTAL_PARAMETERS: source organism: Pseudomonas fluorescens
MEASUREMENT_NAME: Kd (nM)
Report the figure in nM without appending any unit label.

State its Kd for this sequence: FVSVYFSDY 135

---

# SYSTEM_TESTED: HLA-A*02:01
# PROTOCOL: IEDB peptide-MHC binding, purified MHC/direct/fluorescence; filed as Kd, often an IC50 or EC50 that approximates it; bounds were set here for any values at or beyond the usual limits of such assays
# EXPERIMENTAL_PARAMETERS: source organism: Homo sapiens
pKd: −log10 of the molar value.
MEASUREMENT_NAME: pKd

State its pKd for this sequence: LVMAPRTVL ≤ 4.40

---

# SYSTEM_TESTED: HLA-A*24:03
# PROTOCOL: IEDB peptide-MHC binding, purified MHC/direct/fluorescence; filed as Kd, often an IC50 or EC50 that approximates it; bounds were set here for any values at or beyond the usual limits of such assays
# EXPERIMENTAL_PARAMETERS: source organism: Rickettsia sibirica
pKd: −log10 of the molar value.
MEASUREMENT_NAME: pKd

State its pKd for this sequence: ASDRISGIL ≤ 4.70

---

# SYSTEM_TESTED: HLA-A*26:01
# PROTOCOL: IEDB peptide-MHC binding, purified MHC/direct/fluorescence; filed as Kd, often an IC50 or EC50 that approximates it; bounds were set here for any values at or beyond the usual limits of such assays
# EXPERIMENTAL_PARAMETERS: source organism: Bacillus cereus AH1134
MEASUREMENT_NAME: Kd (nM)
Report the figure in nM without appending any unit label.

State its Kd for this sequence: EVADRILFM 3

---

# SYSTEM_TESTED: HLA-A*03:01
# PROTOCOL: IEDB peptide-MHC binding, purified MHC/direct/fluorescence; filed as Kd, often an IC50 or EC50 that approximates it; bounds were set here for any values at or beyond the usual limits of such assays
# EXPERIMENTAL_PARAMETERS: source organism: Yersinia pestis
MEASUREMENT_NAME: Kd

{"SEQUENCE_ENTRY": "MQLQLNCAY", "SYSTEM_TESTED": "HLA-A*03:01", "MEASUREMENT_NAME": "Kd", "VALUE_OBSERVED": "≥ 20 µM"}
{"SEQUENCE_ENTRY": "RQLESRLGY", "SYSTEM_TESTED": "HLA-A*03:01", "MEASUREMENT_NAME": "Kd", "VALUE_OBSERVED": "0.0616 µM"}

State its Kd for this sequence: AMQDPNPEV ≥ 20 µM

---

Entries annotated with measured pKd
# SYSTEM_TESTED: HLA-B*57:01
# PROTOCOL: IEDB peptide-MHC binding, purified MHC/competitive/radioactivity; filed as Kd, often an IC50 or EC50 that approximates it; bounds were set here for any values at or beyond the usual limits of such assays
# EXPERIMENTAL_PARAMETERS: source organism: Dengue virus 4 Philippines/H241/1956
Formally, pKd is defined as -log10 of the concentration c, with c in mol/L.

{"SEQUENCE_ENTRY": "ILIGFLVLW", "pKd": 5.90}
{"SEQUENCE_ENTRY": "YATQTVGPW", "pKd": 6.22}
{"SEQUENCE_ENTRY": "AVFQEEQGW", "pKd": 7.47}

State its pKd for this sequence: LSSRAKLALD 5.13
